- assay: in vivo
- Parameters: species or system SD rats
- experimental setup: male, SD, rat, iv, 5 mg/kg
quantity: clearance
Answer with the number, then the unit.

Challenge: For COc1c(O)cc2c(c1O)[C@@H]1O[C@H](CO)[C@@H](O)[C@H](O)[C@H]1OC2=O , what is its reported clearance?
Response given: 95.5 mL/min/kg

###

- assay: in vivo
- Set-up: species or system SD rats
- experimental setup: male, SD, rat, iv, 5 mg/kg
quantity: half-life (min)
# value in min; strip the unit string

Challenge: For COc1c(O)cc2c(c1O)[C@@H]1O[C@H](CO)[C@@H](O)[C@H](O)[C@H]1OC2=O [Bergenin, bergenin] , what is its reported half-life?
Response given: 19.1
